Measured normalized growth accompanies every entry in the list below.
procedure text: chemical genetic growth profiling, strain panel (AID 1159580);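 also: tested at 20 µM; growth read once vehicle control cultures reached saturation at 30 °C; 1 = growth at the plate median or of vehicle wells; lower values mean less growth of the strain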
cond: S. cerevisiae deletion strains, growth OD, locus YMR001C, strain CDC5, hits give low values
Out of some 5,500 compounds screened, about 2,000 (36%) were called active. About 18% were inconclusive and are not listed. The list shows a part of the results.
observed property: normalized growth

{"columns": ["chemical string", "result value"],
 "data": [
  ["NC(=S)N/N=C1/CCCc2ccccc21", 0.939],
  ["Cc1ccc2nc(-c3ccc4c(c3)OCCO4)cn2c1", 0.987],
  ["Cc1ccc(-c2csc(-c3ccncc3)n2)cc1", 0.91]
]}

---

procedure text: chemical genetic growth profiling, strain panel (AID 1159580);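 also: tested at 20 µM; growth read once vehicle control cultures reached saturation at 30 °C; 1 = growth at the plate median or of vehicle wells; lower values mean less growth of the strain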
cond: S. cerevisiae deletion strains, growth OD, locus YNL250W, strain rad50
About 2,000 (36%) of roughly 5,500 compounds were called active. Another 18% or so got no clear call; they are omitted. Rule as the data show it: active = normalized growth mostly below about 0.91 (no sharp cut-off); inconclusive = no clear call, values can overlap the other calls; inactive = mostly above about 0.92. This is one part of the list.
Labels: active, inactive

{"columns": ["compound", "cat"],
 "data": [
  ["C/C1=C\\CC(C)(C)/C=C/CC2(C)OC2CC1 (stereo not given)", "inactive"],
  ["CC(C)=CCCC(C)[C@@H]1CC[C@]2(C)C3=C(CC[C@@]12C)C1(C)CC[C@H](O)C(C)(C)C1CC3 (stereo not given in full)", "inactive"],
  ["NC1=NCCN1CC(=O)O", "inactive"],
  ["CC1=CC(=O)c2ccccc2C1=O", "active"],
  ["C[n+]1ccccc1/C=N/O", "inactive"]
]}

---

procedure text: chemical genetic growth profiling, strain panel (AID 1159580);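 also: tested at 20 µM; growth read once vehicle control cultures reached saturation at 30 °C; 1 = growth at the plate median or of vehicle wells; lower values mean less growth of the strain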
cond: S. cerevisiae deletion strains, growth OD, locus YPL240C, strain hsp82, hits give low values
Out of some 5,500 compounds screened, about 2,000 (36%) were called active. Not shown: some 18% with an inconclusive outcome. The list shows a part of the results.

{"columns": ["chemical string", "normalized growth"],
 "data": [
  ["NC1=NCCN1CC(=O)O", 1.01],
  ["COC(=O)c1c(OC)cc2c(c1C)Oc1c(Cl)c(OC(C)=O)c(Cl)c(C)c1C(=O)O2", 1],
  ["N[C@@H](CCC(=O)N[C@@H](CS)C(=O)NCC(=O)O)C(=O)O", 1.01],
  ["CC(=O)Oc1ccc(O)cc1", 0.999],
  ["CC(=O)Oc1ccc(/C=C/c2cc(OC(C)=O)cc(OC(C)=O)c2)cc1", 0.976]
]}

---

procedure text: chemical genetic growth profiling, strain panel (AID 1159580);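 also: tested at 20 µM; growth read once vehicle control cultures reached saturation at 30 °C; 1 = growth at the plate median or of vehicle wells; lower values mean less growth of the strain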
cond: S. cerevisiae deletion strains, growth OD, locus YKR026C, strain gcn3, hits give low values
Screen size: about 5,500 compounds; about 2,000 (36%) were called active. Another 18% or so got no clear call; they are omitted. This is one part of the list.
Measured normalized growth accompanies every entry in the list below.
observed property: normalized growth

{"columns": ["compound", "result value"],
 "data": [
  ["O=C(O)c1ccccc1", 0.978],
  ["CC(C)CCCC(C)[C@H]1CCC2C3CC=C4CC(=O)CC[C@]4(C)C3CC[C@@]21C (stereo not given in full)", 0.993],
  ["O=C(NCO)c1cccnc1", 1.01],
  ["CC(C)C[C@@H](CN)CC(=O)O", 1.01],
  ["C=C1C[C@]23C[C@@]1(O)CC[C@H]2[C@@]12C=C[C@H](O)[C@@](C)(C(=O)O1)[C@H]2[C@@H]3C(=O)O", 1.02]
]}
